# Assay details: folding stability dG unfold from chymotrypsin proteolysis; higher = more stable
Recorded measurements of folding stability dG unfold, one per entry
Enter your answer as a number in kcal/mol; do not include the unit.

The examples below pair each entry with its known result.
[[record]]
sequence = "SAGGSAGGSAGGSDMEIVPRRIPDGFRLMVARNPEGTYTVQVWNPNGKPKWETIPPDEISAGGSAGGSAGGS [r4_120_TrROS]"
quantity_measured = "folding stability dG unfold"
value_units = "kcal/mol"
value_reported = -0.185

[[record]]
sequence = "SAGGSAGGSAGGSMLVEKKTFKDPKTGKTYIEIVIKDENGNLLSVKILSTEDPEKIEKLLSAGGSAGGSAGG [r7_484_JUSTAS]"
quantity_measured = "folding stability dG unfold"
value_units = "kcal/mol"
value_reported = 2.55

[[record]]
sequence = "SKLPPGQPYRRVEMTITFDFKSPKELRKKIRELFGKIEVDMKHNPEDNWYTIDIWFPSPAVMDELKELIFSA [r9_764_TrROS]"
quantity_measured = "folding stability dG unfold"
value_units = "kcal/mol"
value_reported = 3.29


Input SAGGMVTLTYTDLVEEDPEVKAAKARELAEELREKGYTVTDATFDPEAGTLTITVSADDATLEEIAASAGGS [r8_344_TrMRF] . Output folding stability dG unfold: 1.1

Data point: SAGGSAGGSAGDPVLTVTLLDDNHPVTLTYHPGEKTVTVSVYPLKSGKVLGTVTVPASELSAGGSAGGSAGG [r11_231_TrMRF] ; folding stability dG unfold = 0.37

According to the records, this sequence SKTVVVEINGYLIVVEEKKLENGETYYTVKIVNKKTKKVIEVKAKSKEEAEKAVLEALRKLFPDEELKKLSA [r9_749_TrROS_Hall] displays folding stability dG unfold of 2.45

Lab book: folding stability dG unfold of SAGGSAMRPLELENPNGREITIWYNPGEGHFQVEIERYEPPPNGKKKPQRHTFMVNSPEDLLDFIKSAGGSA [r15_31_TrROS] noted as 1.6

// recorded folding stability dG unfold for SAGGSAGGSAGLTKPVEVEVEEDGTVTIKTLSIVPVDDGYELHEETTEIPLSPEEIAALQSAGGSAGGSAGG [r17_415_JUSTAS] : -0.158
